All values here come from PubChem BioAssay (NCI).

Assay: NCI Yeast Anticancer Drug Screen. Data for the rad50 strain (AID 155);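 also: 0% = growth of vehicle-only cultures of the same strain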
Conditions: S. cerevisiae rad50 strain growth inhibition; at 50.0 µM; hits give high values
About 79,000 compounds went through this panel and 15% of them were active in at least one assay; those are over-represented in the sample as a whole.
ENDPOINT_LABEL: growth inhibition (%)

>  <MOLECULE>
CCN(CC)/[N+]([O-])=N/OCC(C)O (configuration not stated)

>  <ENDPOINT_LABEL>
growth inhibition

>  <OBSERVED_RESULT>
18.4

$$$$
>  <MOLECULE>
O=C1/C(=C\c2ccccc2)Cc2cc3c(cc21)OCO3

>  <ENDPOINT_LABEL>
growth inhibition

>  <OBSERVED_RESULT>
6.1

$$$$
>  <MOLECULE>
CCOC(=O)CC(=O)CC

>  <ENDPOINT_LABEL>
growth inhibition

>  <OBSERVED_RESULT>
8.5

$$$$
>  <MOLECULE>
Br

>  <ENDPOINT_LABEL>
growth inhibition

>  <OBSERVED_RESULT>
-11.7

$$$$
>  <MOLECULE>
COc1ccc2[nH]c(=O)c(CO)c(CO)c2c1

>  <ENDPOINT_LABEL>
growth inhibition

>  <OBSERVED_RESULT>
0.45

$$$$
>  <MOLECULE>
O=[N+]([O-])c1ccc(CS(=O)(=O)O)cc1

>  <ENDPOINT_LABEL>
growth inhibition

>  <OBSERVED_RESULT>
6.25

$$$$
>  <MOLECULE>
COc1cc(/C=C/C(=O)OCCc2ccccc2)ccc1O

>  <ENDPOINT_LABEL>
growth inhibition

>  <OBSERVED_RESULT>
74.8

$$$$
>  <MOLECULE>
C=C1C(=O)OC2C1CCC1(C)CC(Br)C(=O)C(C)C21 (configuration not stated)

>  <ENDPOINT_LABEL>
growth inhibition

>  <OBSERVED_RESULT>
1.7

$$$$
>  <MOLECULE>
CCCCCCCCCCCCCCCC(=O)OCC(O)CO (configuration not stated)

>  <ENDPOINT_LABEL>
growth inhibition

>  <OBSERVED_RESULT>
-28.4

$$$$
>  <MOLECULE>
CNC(=O)N(Cl)c1ccc(Cl)cc1

>  <ENDPOINT_LABEL>
growth inhibition

>  <OBSERVED_RESULT>
5.45

$$$$
>  <MOLECULE>
S=C(NNC1=NCCN1)Nc1ccccc1

>  <ENDPOINT_LABEL>
growth inhibition

>  <OBSERVED_RESULT>
-54

$$$$
>  <MOLECULE>
CCCCCCOC(=O)C[n+]1ccc(C(N)=O)cc1

>  <ENDPOINT_LABEL>
growth inhibition

>  <OBSERVED_RESULT>
2.45

$$$$
>  <MOLECULE>
CC(=O)NCCCCNS(=O)(=O)c1ccc(C)cc1

>  <ENDPOINT_LABEL>
growth inhibition

>  <OBSERVED_RESULT>
-16.1

$$$$
>  <MOLECULE>
O=C(O)c1c[nH]c(=O)[nH]c1=O

>  <ENDPOINT_LABEL>
growth inhibition

>  <OBSERVED_RESULT>
1.25

$$$$
>  <MOLECULE>
O=C1CC(c2ccccc2)S(=O)(=O)c2ccccc2N1 (configuration not stated)

>  <ENDPOINT_LABEL>
growth inhibition

>  <OBSERVED_RESULT>
-13.6

$$$$
>  <MOLECULE>
OC1C(O)C2OC(c3ccccc3)OC2C2OC(c3ccccc3)OC12 (configuration not stated)

>  <ENDPOINT_LABEL>
growth inhibition

>  <OBSERVED_RESULT>
7.1

$$$$
>  <MOLECULE>
Nc1nc(N)c(N)c(Nc2ccc(Cl)cc2)n1

>  <ENDPOINT_LABEL>
growth inhibition

>  <OBSERVED_RESULT>
27.5

$$$$
>  <MOLECULE>
O=c1nc(N2CCSCC2)ccn1C1OC(CO)C(O)C1O (configuration not stated)

>  <ENDPOINT_LABEL>
growth inhibition

>  <OBSERVED_RESULT>
-6.5

$$$$
>  <MOLECULE>
O=C(Cl)c1ccc2c(c1)C(=O)NC2=O

>  <ENDPOINT_LABEL>
growth inhibition

>  <OBSERVED_RESULT>
-6.55

$$$$
>  <MOLECULE>
COc1ccc(C(=O)c2ccc(C)c3c(C)cccc23)cc1

>  <ENDPOINT_LABEL>
growth inhibition

>  <OBSERVED_RESULT>
4.5

$$$$
>  <MOLECULE>
CCCCCCCCCC1OC(C)C(C)O1 (configuration not stated)

>  <ENDPOINT_LABEL>
growth inhibition

>  <OBSERVED_RESULT>
24.6

$$$$
>  <MOLECULE>
Cn1c(=O)c2c(ncn2CCN2CCNCC2)n(C)c1=O

>  <ENDPOINT_LABEL>
growth inhibition

>  <OBSERVED_RESULT>
13.8

$$$$
>  <MOLECULE>
O=C(OC(=O)c1cccc2ccccc12)c1cccc2ccccc12

>  <ENDPOINT_LABEL>
growth inhibition

>  <OBSERVED_RESULT>
-5.15

$$$$
>  <MOLECULE>
COCC1(c2ccccc2)C(=O)N(C)C(=O)N1C (configuration not stated)

>  <ENDPOINT_LABEL>
growth inhibition

>  <OBSERVED_RESULT>
-7.6

$$$$
>  <MOLECULE>
COc1cc(NCC(C#N)C#N)ccc1N=Nc1ccc([N+](=O)[O-])cc1

>  <ENDPOINT_LABEL>
growth inhibition

>  <OBSERVED_RESULT>
25.9

$$$$
>  <MOLECULE>
O.[Cl][Co]([Cl])[Cl].c1c[nH]cn1.c1c[nH]cn1

>  <ENDPOINT_LABEL>
growth inhibition

>  <OBSERVED_RESULT>
-0.85

$$$$
>  <MOLECULE>
COc1cc(/C=C2\CCC(CN(C)C)C2=O)ccc1OC(=O)c1ccccc1 (configuration not stated)

>  <ENDPOINT_LABEL>
growth inhibition

>  <OBSERVED_RESULT>
86.6

$$$$
